pIC50: −log10 of the molar value.
Reported pIC50 on Macrophage colony-stimulating factor 1 receptor (Homo sapiens, UniProt P07333) for assorted molecules, compiled from publications.

The following molecules have reported results that may help.
>  <MOLECULE>
COc1ccc(Nc2ccc(C(=O)c3c[nH]c4ncnc(NC5CCC5)c34)c(F)n2)cn1

>  <pIC50>
> 8.00

$$$$
>  <MOLECULE>
CS(=O)(=O)N1CCC(Nc2ncc3cc(C#N)c(=O)n(CC4CCCCC4)c3n2)CC1

>  <pIC50>
7.51

$$$$
>  <MOLECULE>
CCCS(=O)(=O)Nc1ccc(F)c(C(=O)c2c[nH]c3ncc(Nc4ccccc4)cc23)c1F

>  <pIC50>
≥ 5.00

$$$$
>  <MOLECULE>
COc1n[nH]c2ncc(-c3ccc(CC(=O)Nc4cnc(C)c(C(F)(F)F)c4)cc3)cc12

>  <pIC50>
5.00 to 10.00

$$$$
>  <MOLECULE>
Oc1cc(O)cc(Cc2c[nH]c3ncc(-c4ccsc4)cc23)c1

>  <pIC50>
≥ 5.00

$$$$

Ask: Checklist item: pIC50 tested on Macrophage colony-stimulating factor 1 receptor (Homo sapiens, UniProt P07333), entry "COc1cc2nccc(Oc3ccc(NC(=O)c4cn(C(C)C)cc(-c5ccc(C)cc5)c4=O)nc3)c2cc1OC" , value?
Result: 6.70

Ask: Checklist item: pIC50 tested on Macrophage colony-stimulating factor 1 receptor (Homo sapiens, UniProt P07333), entry "CCOc1ncnc2[nH]cc(Cc3ccc(Nc4cccnc4)nc3F)c12" , value?
Result: > 7.00

Ask: Checklist item: pIC50 tested on Macrophage colony-stimulating factor 1 receptor (Homo sapiens, UniProt P07333), entry N#Cc1cc2cnc(Nc3ccc(N4CCN5CCCCC5C4)c(F)c3)nc2n(C2CCCC2)c1=O (centres unmarked) , value?
Result: 9.00

###

Reported pIC50 on Macrophage colony-stimulating factor 1 receptor (Homo sapiens) for assorted compounds, compiled from publications.
pIC50: −log10 of the molar value.

Ask: So what does the record say about pIC50 for "Cc1cccc(C(=O)Nc2cccc([C@@H](C)Oc3cc(Cl)cnc3N)n2)c1" ?
Result: 6.30 to 7.29

Ask: So what does the record say about pIC50 for "COc1cc2nccc(Oc3ccc(NC(=O)c4nn(C5CCOCC5)cc(-c5ccc(C)cc5)c4=O)nc3)c2cc1OC" ?
Result: > 6.70

Ask: So what does the record say about pIC50 for "CS(=O)(=O)Nc1cccc(-c2cnc3[nH]cc(Cc4ccc5c(c4)OCCO5)c3c2)c1" ?
Result: ≥ 5.00

Ask: So what does the record say about pIC50 for "COc1cc2nccc(Oc3ccc(NC(=O)c4cn(C5CCOCC5)cc(-c5ccc(F)cc5)c4=O)nc3)c2cc1OC" ?
Result: > 6.70

###

pIC50: −log10 of the molar value.
Reported pIC50 on Macrophage colony-stimulating factor 1 receptor (Homo sapiens, UniProt P07333) for assorted compounds, compiled from publications.

Ask: Checklist item: pIC50 tested on Macrophage colony-stimulating factor 1 receptor (Homo sapiens, UniProt P07333), entry "Fc1cc(OCc2nc3ccccc3[nH]2)c(F)cc1Cc1c[nH]c2ncc(Br)cc12" , value?
Result: ≥ 5.00

Ask: Checklist item: pIC50 tested on Macrophage colony-stimulating factor 1 receptor (Homo sapiens, UniProt P07333), entry "Fc1cc(Cc2c[nH]c3ncnc(NC4CC4)c23)cnc1NC1CCC(F)(F)CC1" , value?
Result: > 7.00

Ask: Checklist item: pIC50 tested on Macrophage colony-stimulating factor 1 receptor (Homo sapiens, UniProt P07333), entry "O=C(Nc1cccnc1)Nc1cccc(C(=O)c2c[nH]c3ncccc23)c1" , value?
Result: ≥ 5.00

###

pIC50: −log10 of the molar value.
Reported pIC50 on Macrophage colony-stimulating factor 1 receptor (Homo sapiens) for assorted compounds, compiled from publications.

The following compounds have reported results that may help.
>  <COMPOUND>
O=C(Nc1ccccc1)Nc1cccc(C(=O)c2c[nH]c3ncccc23)c1

>  <RESULT>
≥ 5.00

$$$$
>  <COMPOUND>
O=C(c1cc(O)ccc1F)c1c[nH]c2ncc(-c3ccccc3)cc12

>  <RESULT>
≥ 5.00

$$$$
>  <COMPOUND>
O=C(c1c(F)ccc(NS(=O)(=O)C(F)(F)F)c1F)c1c[nH]c2ncc(-c3ccc(Cl)cc3)cc12

>  <RESULT>
≥ 5.00

$$$$
>  <COMPOUND>
Cn1cc(-c2cc(Oc3ccc(NC(=O)C4(C(=O)Nc5ccc(F)cc5)CC4)cn3)ccn2)cn1

>  <RESULT>
> 5.00

$$$$
>  <COMPOUND>
COC(c1ccc(-c2cnc(NC(C)C)n(C)c2=O)nc1C)c1c[nH]c2ncc(Cl)cc12 (centres unmarked)

>  <RESULT>
6.48

$$$$
>  <COMPOUND>
CNC(=O)c1cc(Oc2ccc(NC(=O)N3CCC(C)(C)C3=O)nc2C)ccn1

>  <RESULT>
6.87

$$$$

Ask: Checklist item: pIC50 tested on Macrophage colony-stimulating factor 1 receptor (Homo sapiens), entry O=[N+]([O-])c1cccc(C(O)c2c[nH]c3ncc(-c4cccnc4)cc23)c1 (centres unmarked) , value?
Result: ≥ 5.00

Ask: Checklist item: pIC50 tested on Macrophage colony-stimulating factor 1 receptor (Homo sapiens), entry "CC(C)=CNc1ncnc2[nH]cc(C(=O)c3ccc(NC4CCC(F)(F)CC4)nc3Cl)c12" , value?
Result: < 6.00

###

Reported IC50 on Macrophage colony-stimulating factor 1 receptor (Homo sapiens, UniProt P07333) for assorted compounds, compiled from publications.

The following compounds have reported results that may help.
>  <COMPOUND>
COc1cc(Cc2c[nH]c3ncc(Cl)cc23)c(F)cc1OCCc1nc2ccccc2[nH]1

>  <TARGET ENTITY>
Macrophage colony-stimulating factor 1 receptor (Homo sapiens, UniProt P07333)

>  <IC50>
≤ 10000 nM

$$$$
>  <COMPOUND>
CCCC(=O)Nc1ccc(F)c(C(=O)c2c[nH]c3ncc(-c4cccc(C(N)=O)c4)cc23)c1F

>  <TARGET ENTITY>
Macrophage colony-stimulating factor 1 receptor (Homo sapiens, UniProt P07333)

>  <IC50>
≤ 10000 nM

$$$$

Ask: Checklist item: IC50 tested on Macrophage colony-stimulating factor 1 receptor (Homo sapiens, UniProt P07333), entry "Brc1cnc2[nH]cc(Cc3ccc4c(c3)OCCO4)c2c1" , value?
Result: ≤ 10000 nM

Ask: Checklist item: IC50 tested on Macrophage colony-stimulating factor 1 receptor (Homo sapiens, UniProt P07333), entry "O=C(c1ccccc1F)c1c[nH]c2ncc(Br)cc12" , value?
Result: ≤ 10000 nM

Ask: Checklist item: IC50 tested on Macrophage colony-stimulating factor 1 receptor (Homo sapiens, UniProt P07333), entry "CCN1CCCn2c1ncc(-c1ccc(Oc3ccnc(-c4cnn(C)c4)c3)c(C)n1)c2=O" , value?
Result: 90.7 nM

Ask: Checklist item: IC50 tested on Macrophage colony-stimulating factor 1 receptor (Homo sapiens, UniProt P07333), entry N#Cc1cc2cnc(Nc3ccc4c(c3)CCNC4)nc2n(C2COCC2O)c1=O (centres unmarked) , value?
Result: 55 nM

Ask: Checklist item: IC50 tested on Macrophage colony-stimulating factor 1 receptor (Homo sapiens, UniProt P07333), entry "N#Cc1cc2cnc(NC3CCN(S(=O)(=O)C4CC4)CC3)nc2n(C2CCCC2)c1=O" , value?
Result: 55 nM

Ask: Checklist item: IC50 tested on Macrophage colony-stimulating factor 1 receptor (Homo sapiens, UniProt P07333), entry "Cn1cc(-c2cnc3[nH]cc(C(=O)c4cc(NS(=O)(=O)c5cccc(OC(F)(F)F)c5)ccc4F)c3c2)cn1" , value?
Result: ≤ 10000 nM

###

Reported IC50 on Macrophage colony-stimulating factor 1 receptor (Homo sapiens) for assorted compounds, compiled from publications.

The following compounds have reported results that may help.
>  <MOLECULE SMILES>
COc1cc(CNc2ccc(Cc3c[nH]c4ncncc34)c(F)n2)c(F)cn1

>  <TARGET ENTITY>
Macrophage colony-stimulating factor 1 receptor (Homo sapiens)

>  <RECORDED ENDPOINT>
IC50

>  <RESULT>
≤ 10000 nM

$$$$
>  <MOLECULE SMILES>
COc1cc2nccc(Oc3cnc(NC(=O)c4nn(C5CCOCC5)cc(-c5ccc(C)cc5)c4=O)nc3)c2cc1OC

>  <TARGET ENTITY>
Macrophage colony-stimulating factor 1 receptor (Homo sapiens)

>  <RECORDED ENDPOINT>
IC50

>  <RESULT>
< 200 nM

$$$$

Ask: Checklist item: IC50 tested on Macrophage colony-stimulating factor 1 receptor (Homo sapiens), entry "COc1ccc(Nc2ccc(C(=O)c3c[nH]c4ncnc(N[C@@H](C)c5ccc(F)cc5)c34)c(F)n2)cn1" , value?
Result: < 100 nM

Ask: Checklist item: IC50 tested on Macrophage colony-stimulating factor 1 receptor (Homo sapiens), entry "Cc1nc(NC(=O)N2CCC(C)(C)C2=O)ccc1Oc1ccnc(NC(=O)C2CCN(C)CC2)c1" , value?
Result: 1120 nM
